Reported inhibition values follow for various compounds
- target_of_assay: Mitogen-activated protein kinase 1 (Homo sapiens)
- Sequence (P28482 whole entry): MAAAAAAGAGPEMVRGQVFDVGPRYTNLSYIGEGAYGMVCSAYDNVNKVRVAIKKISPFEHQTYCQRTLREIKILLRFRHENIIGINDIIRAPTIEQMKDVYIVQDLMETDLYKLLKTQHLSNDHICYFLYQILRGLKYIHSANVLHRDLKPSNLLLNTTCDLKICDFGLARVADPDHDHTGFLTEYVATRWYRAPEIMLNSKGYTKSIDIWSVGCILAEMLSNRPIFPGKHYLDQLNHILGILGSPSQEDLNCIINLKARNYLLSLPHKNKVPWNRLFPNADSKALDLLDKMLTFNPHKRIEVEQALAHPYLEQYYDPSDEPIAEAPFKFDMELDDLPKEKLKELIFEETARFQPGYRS
- protocol_details: Inhibition of ERK2 (unknown origin) using kinase substrate 8 at 100 nM incubated for 40 mins in presence of ATP by mobility shift assay
result_type: inhibition (%)

[[record]]
mol = "Cc1c(-c2ccnn2C)nnc(N2CCC(NC(=O)Nc3ccc(Oc4nc(Nc5ccn(C)n5)ncc4Cl)cc3)CC2)c1C"
endpoint_unit = "%"
meas_value = 6.6

[[record]]
mol = "Cc1c(-c2ccnn2C)nnc(N2CCC(NC(=O)Nc3ccc(Oc4nc(Nc5cnn(C)c5)ncc4Cl)cc3)CC2)c1C"
endpoint_unit = "%"
meas_value = 46

[[record]]
mol = "Cc1cnc(NC2CCOCC2)nc1Oc1ccc(NC(=O)NC2CCN(c3nnc(-c4ccnn4C)c(C)c3C)CC2)cc1"
endpoint_unit = "%"
meas_value = 60.7

[[record]]
mol = "Cc1c(-c2ccnn2C)nnc(N2CCC(NC(=O)Nc3ccc(Oc4nc(NC5CCOCC5)ncc4Cl)cc3)CC2)c1C"
endpoint_unit = "%"
meas_value = 80.9

[[record]]
mol = "Cc1c(-c2ccnn2C)nnc(N2CCC(NC(=O)Nc3ccc(Oc4nc(NC(C)C)ncc4Cl)cc3)CC2)c1C"
endpoint_unit = "%"
meas_value = 5.6

[[record]]
mol = "Cc1c(-c2ccnn2C)nnc(N2CCC(NC(=O)Nc3ccc(Oc4nc(NC5CCOCC5)ncc4C(F)(F)F)cc3)CC2)c1C"
endpoint_unit = "%"
meas_value = 85

[[record]]
mol = "Cc1c(-c2ccnn2C)nnc(N2CCC(NC(=O)Nc3ccc(Nc4nc(NC5CCOCC5)ncc4Cl)cc3)CC2)c1C"
endpoint_unit = "%"
meas_value = 36.9


* * *

- protocol_details: Antiproliferative activity against human RBE cells overexpressing Hh/ERK pathway assessed as inhibition of cell growth incubated for 96 hrs by CCK8 assay
- Format: functional, cell-based
Reported IC50 values follow for various compounds
result_type: IC50 (nM)

[[record]]
compound = "CN(C(=O)c1ccc(F)cc1C(F)(F)F)C1CCN(c2nnc(-c3ccnn3C)c3ccccc23)CC1 [TALADEGIB]"
result_type = "IC50"
result_qualifier = ">"
meas_value = 50000

[[record]]
compound = "Cc1c(-c2ccnn2C)nnc(N2CCC(NC(=O)Nc3ccc(Sc4nc(NC5CCOCC5)ncc4C(F)(F)F)cc3)CC2)c1C"
result_type = "IC50"
result_qualifier = "="
meas_value = 1450

[[record]]
compound = "Cc1c(-c2ccnn2C)nnc(N2CCC(NC(=O)Nc3ccc(Oc4nc(NC5CCOCC5)ncc4Cl)cc3)CC2)c1C"
result_type = "IC50"
result_qualifier = "="
meas_value = 12300

[[record]]
compound = "Cc1c(-c2ccnn2C)nnc(N2CCC(NC(=O)Nc3ccc(Sc4nc(NC5CCOCC5)ncc4Cl)cc3)CC2)c1C"
result_type = "IC50"
result_qualifier = "="
meas_value = 2170

[[record]]
compound = "O=C(Nc1ccc2[nH]nc(-c3ccncc3)c2c1)[C@@H]1CCN(CC(=O)N2CCN(c3ccc(-c4ncccn4)cc3)CC2)C1"
result_type = "IC50"
result_qualifier = "="
meas_value = 1630


* * *

- target_of_assay: UniProt:P56726
- Sequence (P56726 whole entry): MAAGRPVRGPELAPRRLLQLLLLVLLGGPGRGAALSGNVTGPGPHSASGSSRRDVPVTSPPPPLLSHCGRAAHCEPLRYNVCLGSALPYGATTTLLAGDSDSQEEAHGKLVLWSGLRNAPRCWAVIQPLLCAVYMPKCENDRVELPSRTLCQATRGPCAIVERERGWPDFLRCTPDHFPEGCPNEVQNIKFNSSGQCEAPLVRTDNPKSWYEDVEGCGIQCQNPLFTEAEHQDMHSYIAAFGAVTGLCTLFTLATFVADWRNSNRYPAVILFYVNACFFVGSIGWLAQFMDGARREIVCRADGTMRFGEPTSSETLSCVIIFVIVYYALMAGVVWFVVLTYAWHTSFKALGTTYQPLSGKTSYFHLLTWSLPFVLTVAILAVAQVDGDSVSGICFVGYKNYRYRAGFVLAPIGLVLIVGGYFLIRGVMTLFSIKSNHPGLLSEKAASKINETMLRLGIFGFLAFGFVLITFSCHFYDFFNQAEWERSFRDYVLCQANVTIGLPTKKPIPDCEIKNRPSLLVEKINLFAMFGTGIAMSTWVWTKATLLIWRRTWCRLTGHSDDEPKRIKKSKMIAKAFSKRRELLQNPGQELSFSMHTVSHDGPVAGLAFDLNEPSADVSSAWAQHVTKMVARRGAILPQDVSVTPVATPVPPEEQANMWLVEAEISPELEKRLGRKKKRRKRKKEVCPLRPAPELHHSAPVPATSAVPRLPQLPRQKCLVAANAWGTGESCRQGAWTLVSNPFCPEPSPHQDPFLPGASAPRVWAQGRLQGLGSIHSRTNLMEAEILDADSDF
- protocol_details: Inhibition of SMO in mouse 3T3/HH FlashII-7 cells incubated for 36 hrs in presence of SHH by Gli-luciferase reporter assay
pIC50: −log10 of the molar value.
Reported pIC50 values follow for various compounds
result_type: pIC50

[[record]]
mol = "Cc1c(-c2ccnn2C)nnc(N2CCC(NC(=O)Nc3ccc(Oc4nc(Nc5cnn(C)c5)ncc4Cl)cc3)CC2)c1C"
result_qualifier = "="
meas_value = 7.75

[[record]]
mol = "Cc1c(-c2ccnn2C)nnc(N2CCC(NC(=O)Nc3ccc(Sc4nc(NC5CCOCC5)ncc4C(F)(F)F)cc3)CC2)c1C"
result_qualifier = "="
meas_value = 6.81

[[record]]
mol = "Cn1cc(-c2ccc(N3CCC(NC(=O)Nc4ccc(Oc5nc(NC6CCOCC6)ncc5Cl)cc4)CC3)nn2)cn1"
result_qualifier = "<"
meas_value = 6.00

[[record]]
mol = "Cc1cnc(NC2CCOCC2)nc1Oc1ccc(NC(=O)NC2CCN(c3nnc(-c4ccnn4C)c(C)c3C)CC2)cc1"
result_qualifier = "="
meas_value = 6.82

[[record]]
mol = "Cc1c(-c2cnn(C)c2)nnc(N2CCC(NC(=O)Nc3ccc(Oc4nc(NC5CCOCC5)ncc4Cl)cc3)CC2)c1C"
result_qualifier = "="
meas_value = 6.39

